Where these numbers come from: patent US20260184766A1

Please respond with reported pEC50 for every item in the list.
# tested-system: T1, SARS CoV-2 spike trimer protein from the parental Wuhan-Hu-1 isolate (recombinant stabilized extracellular … (SARS-CoV-2 (Wuhan-Hu-1)))
# T1 construct: also called Spike protein
# assay-overview: ELISA, spike coated, chimeric IgG1
On this scale, pEC50 is minus log10 of a concentration expressed in M (mol/L).

In: Need pEC50, item R2C3 (R5C1) chimeric bovine-human IgG1 (ultralong CDR3) (antibody, also called SA-R2C3) VH: QVQLRESGPSLVKPSQTLSLTCTASGFSLSDKPVGWVRQAPGKPLEWLGSIDTAENTGYNPGLKSRLSITKDNSKSQVSLSLSSVTTEDSATYYCATVHQKTRKEKSCPDGYLYSSNTGRGYDCGVWTCRRVGGEFCSATGDWTSPSEEDFYEFYVDTWGQGAPVTVSS VL: QAVLNQPSSVSGSLGQRVSITCSGSSSNVGNGYVSWYQLIPGSAPRTLIYGDTSRASGVPDRFSGSRSGNTATLTISSLQAEDEADYFCASAEDSSSNAVFGSGTTLTVL
Out: 9.41

In: Need pEC50, item SR3A3 chimeric bovine-human IgG1 (ultralong CDR3) (antibody) VH: QVQLRESGPSLVKPSQTLSLTCTISGFSLSSYAVLWVRQAPGKPLEWLGSIDTAENTGYNPGLKSRLSITKDNSKSQVSLSVSSVTTEDSATYYCATVHQKTRKEKNCPDGYIYSSNITSGFDCGVWICRRVGSAFCSRTGDYTSPTELDIYEFYVEGWGQGVPVTVSS VL: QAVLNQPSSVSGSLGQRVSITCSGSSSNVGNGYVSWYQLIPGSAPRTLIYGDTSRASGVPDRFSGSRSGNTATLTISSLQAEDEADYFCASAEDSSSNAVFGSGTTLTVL
Out: 10.43
